Tested on: VDR:RXRa (NR concentration 270 nM, RXRa partner concentration 90 nM)
Test Summary: PBM binding z-score (relative to random genomic background probes); higher = stronger binding; sequences stand for … in GC…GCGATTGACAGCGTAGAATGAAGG
Please respond with reported PBM binding z-score for every item in the list.
Output spec: single numeric token, no unit.

// returns reported PBM binding z-score for input GCTAGTTGGTCTGTAAAAGGTCACACACCGGTCG 3.94

GET /values?readout=PBM binding z-score&item= CCTACTGGCCCATCAGGTCATTGATATCAACGTT 1.78

Can you look up the measured PBM binding z-score of TCTCGGAGGACTCGAAGGTCAGAGCTTTCCAGAG for me? 0.759

Recorded PBM binding z-score of ATCGAAAGGTCGACGAGGTGGGTATACACCGTTT , please. 4.34

Give its PBM binding z-score value. Item: GCGTCTGGGGCATCAGCAGGTTACCATAACTTAA -0.165

Suppose we examine the sequence ACAGACAGGTGATGAAGGTAACTTAGGCTATCAT ; what PBM binding z-score value has been reported? 0.0593

* * *

Tested on: LXRb homodimer (NR concentration 270 nM)
Test Summary: PBM binding z-score (relative to random genomic background probes); higher = stronger binding; sequences stand for … in GC…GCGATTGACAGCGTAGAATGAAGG
Would you kindly list PBM binding z-score for each of these sequences?
Reply with the value as a number alone.

// lookup PBM binding z-score for AGTCAAAGTTAATCTAGGTAACGTAAGATATGCT -0.44

Any idea what PBM binding z-score was measured for CCTCGGAGGACAACAGGAGGTTAGAGCTGCCAGA ? -0.957

Give the measured PBM binding z-score of TTACCAAGCTGAAGGTCGTTGATCCCTCTGTAGA . -0.907

Consider the sequence AGTCAAAGTTCAGGACGGGGTAACGTAAAGCACG and give its measured PBM binding z-score. 1.48

Quick one: PBM binding z-score for ATATGTAGGTTAGCTGGGGGCATTCAGACTAGGC ? 9.63

Look up PBM binding z-score: TCATATAGGTAATACAGGTGATAGTCGGCATCTA 0.315

Consider the sequence AGAATAAGGTTAAGATCAGGGAAACAGAATACAT and give its measured PBM binding z-score. 0.458

Please report the recorded PBM binding z-score for CCTATTAGTTGACCATAAGGGCAACCAAAGCTCG . 0.552

Consider the sequence TCTCGGAGGACACGAAGGTGAGAGCTTTCCAGAG and give its measured PBM binding z-score. -1.18

Which PBM binding z-score is reported for this sequence? CAAACTAGGTCAAGAGGACAAAGTCCGCTTCCCG 0.143

Field request: PBM binding z-score | item: CTCGAGAGGTCGGTTGAGGTGAGTATACGGATAA -0.474

// query PBM binding z-score value for entry CAAACTAGGTCACAAAGGTCAAAGTCCGTGCGTA 3

What does the data say about its PBM binding z-score? Entry: ACTTACGTGTCAACGAGGTTATAGCACGCGTATA 0.0422

Report PBM binding z-score for GCATATAGGTAATACACGGTGAAAGTCCGATTGT please. -0.496

So what's the measured PBM binding z-score for this one? GCATATAGGTAATACAAGGTGAATGTCCGATTGT -0.289

So what's the measured PBM binding z-score for this one? CAAACTAGGTCACAGAGGTCAAAGTACGTGCGTA 2.46

Bench note: what PBM binding z-score did TGTCAAATTTCAAAGGTAACGTAAGTATCCACAC show? 0.492

Fill blank: measured PBM binding z-score of the sequence ATATGTAGGTTAACGGGTCATTCAGTTTGCGCAT is ____. 0.599

What measured PBM binding z-score goes with GTACCAAGGTGAATAGGTCGTTTATGAGTAGGCG ? -0.198

Quick one: PBM binding z-score for TCTTGTAGATCAATAGAGGTTAAGGAAGTGCGCT ? -0.201

So what does the record say about PBM binding z-score for CAAACTAGGTCACCGGTAGGTCAAAGTCCGCATG ? 0.66

I am curious: what PBM binding z-score value has been reported for GTACCAAGGTGAATAGGTCGTTGTTGAGTAGGCG ? -0.821

PBM binding z-score for ATCTCTAGGAAACCAAGTTCAGTGAATGCCGAAC ? 0.4

Requested read-out: PBM binding z-score. Entry: TCATATAGGTAATACAGGTGAAAGTGGGCATCTA 0.302

Using the record for CCTACTGGGCCTTCAGGTCATTGATATCAACGTT , report its PBM binding z-score. -0.3

Endpoint output: PBM binding z-score of CCTGCTAGGACATGGTCAGCTAATCTACAGTATG . Value? -0.639
